So I've got a bunch of molecules here, and I need their Cell Viability values.
Tested on: Colon cancer organoid
assayProcedure: Identification of compartment-specific drug sensitivities in O06 CRC organoid-stroma F06 CAF co-cultures. Organoid is transduced with Lucferase2-P2A-EGFP lentivirus, fibroblast with Renilla-dsRed lentivirus. Dual-Glo Luciferase assay is used to report viability data.
Type: functional, Homo sapiens
Set-up: dose or concentration left out as unconfirmed
runConditions: Transduced with Renilla-dsRed lentivirus
Numbers only, in %.

For each listed entry, give its Cell Viability.
1. CN([C@@H]1CCc2c(CC(=O)O)c3ccccc3n2C1)S(=O)(=O)c1ccc(F)cc1 [MK-7246]
2. CCc1cccc(CC)c1NC(=O)c1nn(C)c2c1CCc1cnc(Nc3ccc(C(=O)NC4CCN(C)CC4)cc3OC(F)(F)F)nc1-2
3. CC(=O)N1CCC(c2ccc(C(=O)NC3=NCCN3)cc2C(F)(F)F)CC1 [BI 0054]
4. C[C@H](c1ccc(F)cc1)N(Cc1cccc(C(=O)O)c1)C(=O)c1cnc2ccccc2c1 [PF-05105679]
5. COc1cc2c(cc1-c1c(C)noc1C)ncc1[nH]c(=O)n([C@H](C)c3ccccn3)c12
6. CC(=O)Nc1cccc(-n2c(=O)n(C3CC3)c(=O)c3c(Nc4ccc(I)cc4F)n(C)c(=O)c(C)c32)c1 [TRAMETINIB]
7. CCc1cc(Nc2nccc(-c3c(-c4ccc(OC)c(C(=O)Nc5c(F)cccc5F)c4)nc4ccccn34)n2)c(OC)cc1N1CCC(N2CCN(S(C)(=O)=O)CC2)CC1

Response:
124.085
150.393
95.7607
113.872
325.273
48.8246
78.7013

For each listed entry, give its Cell Viability.
1. CC1=C(C#N)C(c2ccc3[nH]nc(C)c3c2)C(C#N)=C(C)N1 [BAY-474]
2. CN(C)[C@H]1CN(C2CCc3cccc(F)c32)C[C@@H]1c1ccc(N2CCN(S(C)(=O)=O)CC2)cc1 (stereo partly specified)
3. C=CC(=O)Nc1ccc2[nH]c(=O)n(C3CCN(Cc4ccc(-c5ccc6c(c5)NC(=O)CO6)cc4)CC3)c2c1 [RL2578]

Response:
1. 162.783
2. 127.07
3. 104.707

* * *

Test system: Colon cancer organoid
assayProcedure: Identification of compartment-specific drug sensitivities in O20 CRC organoid-stroma F20 CAF co-cultures. Organoid is transduced with Lucferase2-P2A-EGFP lentivirus, fibroblast with Renilla-dsRed lentivirus. Dual-Glo Luciferase assay is used to report viability data.
Format: functional, Homo sapiens
Design: dose or concentration left out as unconfirmed
runConditions: Transduced with Lucferase2-P2A-EGFP lentivirus
So I've got a bunch of compounds here, and I need their Cell Viability values.
One number for each entry, in %.

Worked cases, Cell Viability given:
compound | unitText | Cell Viability
Cl.Cn1cncc1[C@](O)(COc1ccc(C#N)cc1-c1ccc(OC(F)(F)F)cc1)c1ccc(C#N)cc1 | % | 15.3114
CC(=O)c1cc(-c2ccccc2OCC2CC2)c2ncccn12 | % | 91.2961
C[C@@H]1CCNC(=O)c2cc3ccc(C(=O)Nc4nc5ccccc5n4CCCN(C)C)cc3n21 | % | 65.8011
CC(C)N(CCCNC(=O)Nc1ccc(C(C)(C)C)cc1)C[C@H]1O[C@@H](n2cc(Br)c3c(N)ncnc32)[C@H](O)[C@@H]1O | % | 59.6009
CCN(C(=O)CO)[C@H]1CN(/C(=N\C#N)Nc2cccc(OC(F)F)c2)N=C1c1ccc(Cl)c(Cl)c1 | % | 98.7267
COc1cc(-c2cn(C)c(=O)c3cnccc23)c(OC)cc1CN(C)C | % | 61.6023

For each listed entry, give its Cell Viability.
1. COc1ccccc1S(=O)(=O)Nc1ccc2c(c1)CN(C)C(=O)N2
2. C[C@@H]1CCN(C(=O)CC#N)C[C@@H]1N(C)c1ncnc2[nH]ccc12.O=C(O)CC(O)(CC(=O)O)C(=O)O [TOFACITINIB CITRATE]

Response:
1: 112.453; 2: 113.321

* * *

Test system: Colon cancer organoid
assayProcedure: Identification of compartment-specific drug sensitivities in O20 CRC organoid-stroma F20 CAF co-cultures. Organoid is transduced with Lucferase2-P2A-EGFP lentivirus, fibroblast with Renilla-dsRed lentivirus. Dual-Glo Luciferase assay is used to report viability data.
Format: functional, Homo sapiens
Design: dose or concentration left out as unconfirmed
runConditions: Transduced with Lucferase2-P2A-EGFP lentivirus
So I've got a bunch of compounds here, and I need their Cell Viability values.
Give bare numbers, in %.

Worked cases, Cell Viability given:
compound | unitText | Cell Viability
CCC(=O)N[C@H]1CC[C@@H](C(=O)N(C)c2ccc(-c3nc4ccccc4o3)cc2)C1 | % | 33.9891
CCNC(=O)c1cc2c(-c3cc(C(C)(C)O)ccc3Oc3c(C)cc(F)cc3C)cn(C)c(=O)c2[nH]1 | % | 58.4777

For each listed entry, give its Cell Viability.
1. CC(=O)C1=C(C)N(c2cccc(C(F)(F)F)c2)C(=O)N[C@@H]1c1ccc(C#N)nc1
2. CC1=C(C(=O)Nc2cc3cn[nH]c3cc2F)C(c2ccc(C(F)(F)F)cc2)CC(=O)N1 (stereo not drawn)
3. CC(=O)Nc1nc(CN2CCC[C@H](Cc3cc(C)nc(C)c3)C2)cs1

Response:
1: 140.099; 2: 133.463; 3: 90.3874

For each listed entry, give its Cell Viability.
1. CN(C)C(=O)c1sc2nc(N3CCC(S(C)(=O)=O)CC3)cc(C(F)(F)F)c2c1N
2. Cc1cc2c(cc1N1C(=O)c3cccc4c(CCCO)ccc(c34)C1=O)n(C)c(=O)n2C
3. CN1CCN(c2cnc3c(C4CCN(C(=O)c5ccc(OC(F)(F)F)cc5N)CC4)ncnc3c2)CC1

Response:
83.1119
35.202
78.4575

* * *

Test system: Colon cancer organoid
assayProcedure: Identification of compartment-specific drug sensitivities in O06 CRC organoid-stroma F06 CAF co-cultures. Organoid is transduced with Lucferase2-P2A-EGFP lentivirus, fibroblast with Renilla-dsRed lentivirus. Dual-Glo Luciferase assay is used to report viability data.
Assay type: functional, Homo sapiens
Design: dose or concentration left out as unconfirmed
runConditions: Transduced with Renilla-dsRed lentivirus
measure: Cell Viability (%)
Give bare numbers, in %.

Worked cases, Cell Viability given:
compound | Cell Viability, %
O=C1NC(c2ccccn2)Sc2ccccc21 (centres undefined) [BTZO-4] | 70.0316
COc1cccc(CNC(=O)c2nc3scc(CN(C)Cc4ccccc4)c3c(=O)[nH]2)c1 [T-26f] | 76.7347
O=C(O)c1ccc2c(c1)nc(Nc1cccc(Cl)c1)c1ccncc12 [SILMITASERTIB] | 80.6873

Please examine the following record next.
Form: compound = O=C(N[C@H]1CCCCC/C=C\C2C[C@@]2(C(=O)O)NC(=O)[C@@H]2C[C@@H](Oc3ccncc3)CN2C1=O)OC1CCCC1 (some centres undefined) [BI 1675] ; Cell Viability = 81.7525

* * *

Tested on: Colon cancer organoid
assayProcedure: Identification of compartment-specific drug sensitivities in O06 CRC organoid-stroma F06 CAF co-cultures. Organoid is transduced with Lucferase2-P2A-EGFP lentivirus, fibroblast with Renilla-dsRed lentivirus. Dual-Glo Luciferase assay is used to report viability data.
Type: functional, Homo sapiens
Design: dose or concentration left out as unconfirmed
runConditions: Transduced with Renilla-dsRed lentivirus
So I've got a bunch of compounds here, and I need their Cell Viability values.
Give bare numbers, in %.

smilesRepresentation | unitText | Cell Viability
CC(=O)Nc1nc(CN2CCC[C@H](Cc3cc(C)nc(C)c3)C2)cs1 | % | 131.954
Cc1sc2c(c1C)C(c1ccc(Cl)cc1)=N[C@@H](CC(=O)OC(C)(C)C)c1nnc(C)n1-2 | % | 301.325
COc1cc(-c2cn([C@H]3CCc4ccccc4N(CC(F)(F)F)C3=O)nn2)ccc1-n1ccc(C)n1 | % | 74.3796

Form: compound = `CC1=CC(C)=[N+]2C1=C(CCCCc1cn(CC(=O)N3CCc4nc(NC(=O)[C@H]5CCN(C#N)C5)sc4C3)nn1)c1c(C)cc(C)n1[B-]2(F)F` ; Cell Viability = 111.523

* * *

So I've got a bunch of compounds here, and I need their Cell Viability values.
Tested on: Colon cancer organoid
assayProcedure: Identification of compartment-specific drug sensitivities in O20 CRC organoid-stroma F20 CAF co-cultures. Organoid is transduced with Lucferase2-P2A-EGFP lentivirus, fibroblast with Renilla-dsRed lentivirus. Dual-Glo Luciferase assay is used to report viability data.
Format: functional, Homo sapiens
Design: dose or concentration left out as unconfirmed
runConditions: Transduced with Renilla-dsRed lentivirus

Worked cases, Cell Viability given:
compound | Cell Viability
Cc1cc2c(cc1N1C(=O)c3cccc4c(CCCO)ccc(c34)C1=O)n(C)c(=O)n2C | 231.762%
CN(C)c1ncnc(-c2ccc3nc(Nc4cc(CN5CCN(C(=O)CC(F)(F)F)CC5)ccn4)[nH]c3c2)c1Cl [BAY-440] | 109.622%
CN(C)C(=O)/C(C#N)=C/c1ccc(-c2nc3cnc4c(ccn4C)c3n2C2CCCCC2)o1 | 127.191%

Please examine the following record next.
Form: compound = `CO[C@H]1CNC[C@@H](OCC2CCC(F)(F)CC2)[C@@H]1Nc1ncc(-c2cncc(C)c2)c2cc(C)c(=O)[nH]c12` ; Cell Viability = 122.949%

Values were extracted from ChEMBL document CHEMBL5608141.
